Listed below: melting point values for each entry.

Consider the worked cases shown below.
- smiles_entry: "O=C1CCC(c2ccncc2)=NN1"
  melting point: "185 to 187 °C"
- smiles_entry: "O=C(CNc1ccc(O)cc1)N1CCC(Cc2ccccc2)CC1"
  melting point: "138 to 140 °C"
- smiles_entry: "Cc1nc(-c2ccc(=O)[nH]c2C)cs1"
  melting point: "188 to 190 °C"
- smiles_entry: "COc1ccc(NC(=O)N(Cc2ccccn2)Cc2ccc(F)cc2F)c(NC(=O)c2cc(C(C)(C)C)c(O)c(C(C)(C)C)c2)c1"
  melting point: "176 to 178 °C"

Please look at the following molecule next.
**Q:** Give the measured melting point of `O=S(=O)(Cl)c1sc(Cl)c(Cl)c1Cl` .
**A:** 56 °C

----------
endpoint: melting point

- compound: "Cn1ncc2[nH]c3cccc(-c4cccc(O)c4)c3c(=O)c21"
  melting point: "> 300 °C"
- compound: "Cc1nc2ncnn2c2c1CCN2C1CCCCCCC1"
  melting point: "188 to 190 °C"

Please look at the following compound next.
**Q:** Give the measured melting point of CC1C(c2ccc(Cl)cc2Cl)CC(=O)N1O (stereo not drawn) .
**A:** 140 to 144 °C

----------
Listed below: melting point values for each entry.

**Q:** Give the measured melting point of O=C1c2ccccc2C(=O)N1CC(Cl)(CCl)c1ccccc1 (stereo not given) .
**A:** 114 to 115 °C

**Q:** Please give the result for `O=C1c2ccccc2S(=O)(=O)N1CCCCOc1ccccc1` too.
**A:** 92 to 94 °C

**Q:** Please give the result for `O=C(NNS(=O)(=O)c1ccccc1)c1ccc(Cl)cc1Cl` too.
**A:** 168 to 170 °C

**Q:** Please give the result for `Nc1nc(O)nc(Cl)n1` too.
**A:** 300 °C

**Q:** Please give the result for `CCCCCCCCCCCC(=O)N[C@@H](CC(C)C)C(=O)N[C@@H](C(C)C)[C@@H](O)c1c(-c2ccccc2)c1=O` too.
**A:** 123 to 127 °C

**Q:** Please give the result for `CSc1cc2cc(C)ccc2cc1C=Cc1cc2ccc(C)cc2cc1SC` too.
**A:** 185 to 186 °C

**Q:** Please give the result for `C[C@H](CS(C)(=O)=O)NC(=O)c1c[nH]c2ncc(-c3nn(C)c4cc(Cl)ccc34)nc12` too.
**A:** 287 to 290 °C

**Q:** Please give the result for COc1ccc2c(c1)CCC1C2CCC2(C)C1CCC2N(C=O)CCCO (stereo not given) too.
**A:** 159 to 161 °C

**Q:** Please give the result for COc1c(NC(=O)CC(C)(C)C)c(C)c(C)c2c1C(c1ccc(C(C)C)cc1)CO2 (stereo not given) too.
**A:** 161 to 162 °C

**Q:** Please give the result for CNC(=O)Nc1ccc(C2=NN(C(=O)NC)C(C)Cc3cc4c(cc32)OCO4)cc1 (stereo not given) too.
**A:** 181 to 183 °C

**Q:** Please give the result for `CNC(=O)c1ccc(=O)n(CCNC(=O)c2cccnc2)c1` too.
**A:** 208 to 210 °C

**Q:** Please give the result for `COc1ccc(C2(C#Cc3cc(C#N)cc(C#N)c3)CCC(=O)CC2)cc1OC1CCCC1` too.
**A:** 148 °C

Sourced from a melting point compilation (Tetko et al.; mined from patent text by program, amines drawn as free bases though some values may be those of a salt)
